For each of the sequences below, state its protein stability index.
PROTOCOL DESCRIPTION: protein stability index of a GFP-peptide fusion (GPS, HEK-293T) (PSI 1-6); higher = more stable;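 further: 24-mer peptide tiles fused after GFP, lentivirally expressed, FACS-sorted into six equal bins by GFP/DsRed ratio, decoded by Illumina sequencing, PSI is the read-weighted mean bin number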
ASSAY SETUP: treatment: DMSO; c terminus: a fixed tail appended
Answers are plain numbers.

1. EVLKVQTHLENPTRYHLQQARRQQ [TFE3]; 3.77
2. ITAPTEVEVMDETNCQKVLNMWCC [CSNK1G3]; 2.84
3. YLIIRTLGKLIPRHQSIFKSNGFF [CDKL4]; 2.74

Go through the list and state protein stability index for each entry.
1. TVGCSSQHTPDQANSDRASIGRRR [PLEKHN1]
2. FSSDKAKAGSSEWLAVDGLVSPSN [ATF4]
3. LKKEHPGARDGIRYLEAEFKKGNR [SMG5]
4. FPPFFDDNPFGIYQKILAGKIDFP [PRKX]
5. NLLESKADGIEVSYNACGVLSHIM [ZER1]
6. YLATEYLETHFRDVSSTEEFLELS [GAN]

-- reply
1. 5.04
2. 3.8
3. 4.35
4. 2.28
5. 2.25
6. 3.13

====

For each of the sequences below, state its protein stability index.
PROTOCOL DESCRIPTION: protein stability index of a GFP-peptide fusion (GPS, HEK-293T) (PSI 1-6); higher = more stable
ASSAY SETUP: treatment: DMSO; c terminus: a fixed tail appended
Answers are plain numbers.

// solved cases for protein stability index follow
1. DFLLRAASFDVCESVDEAGGSGPA [RHOBTB2]; 3.96
2. FELALQLAEMKDDSDSEKQQQIHH [VPS39]; 4.76
3. KSISPWKSPPQLRQFLPEEFMKTL [DENND6A]; 2.47
4. AIQAFLDKCSAPKIWRTPNGKTIE [IQUB]; 2.36
5. IVETLCIIWFSFELVVRFFACPSK [KCNA1]; 3.11
6. MQNSNECKRNFVAVYDGSSSVEDL [NETO1]; 4.59

Go through the list and state protein stability index for each entry.
1. RSLNVASGSGKSGGYGFGRGRASG [KRT71]
2. FFVSSINTLVTKTMEDTLMTVKQY [ARFIP2]
3. PKKLLNPVKASRSHQELHRELLMN [FAM107A]
4. LYYSNFVLALEERFGVRPKVTGYL [MFSD9]
5. VAIFIMSLNKRHSSGDGNSKLKSE [MFSD9]
6. VLDLRKNSHQDFWTVWSGNRASLY [PRAME]
7. LKPAMTQAQDEVEQERRLSEARLS [FCHSD1]

-- reply
4.35
3.08
3.17
2.76
2.77
2.19
5.25

====

PROTOCOL DESCRIPTION: protein stability index of a GFP-peptide fusion (GPS, HEK-293T) (PSI 1-6); higher = more stable
ASSAY SETUP: treatment: DMSO; c terminus: a fixed tail appended
Assign class by protein stability index: not lower than 3 means true (1); lower than 3 means false (0).

1) LGHMFMYFLRGSLPWQGLKADTLK [CSNK1G3]; false (0)

-- ask Exam item: decide whether the reported protein stability index for DSFPEGPERLHAIKEQLIQEGLLD [HDAC6] is at least 3.
-- reply true (1)

-- ask What do you have for SLNALEDQDLDALMADLVADISEA [APBB1IP] ?
-- reply true (1)
